targetSystem: T1, PD-L1 protein (human, UniProt Q9NZQ7 19-238, limits assumed)
T1 construct: Plate-coated recombinant protein; also called human PD-L1 protein
T1 sequence (Q9NZQ7 19-238 limits assumed): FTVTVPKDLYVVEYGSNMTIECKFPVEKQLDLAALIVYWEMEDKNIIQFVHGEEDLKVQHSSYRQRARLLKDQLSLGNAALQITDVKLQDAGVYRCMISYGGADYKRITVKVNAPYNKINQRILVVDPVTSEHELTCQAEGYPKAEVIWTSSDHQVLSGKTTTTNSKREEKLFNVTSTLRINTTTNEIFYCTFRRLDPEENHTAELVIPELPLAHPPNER
method: ELISA: PD-L1 coated at 2 ug/ml, FITC-labelled PPLC titrated, HRP anti-FITC detection, OD 410 nm
Where no end group is shown, it is not given here.
measuredParameter: pKd
// field semantics: pKd = negative decimal log of concentration (mol/L)

Exercise: Returns the measured pKd for the input binder. Input: VSVSHFQKVWVV (also: FITC label, attachment not given here, Chemically synthesized peptide; The FITC-labelled form was used in the direct ELISA, flow cytometry and confocal assays; also called FITC-labeled PPLC) [PPLC peptide labeled with FITC]
Key: 6.12
